From various publications: IC50 for UniProt P07195.
Reply with just the number (in µM).

Request: Notebook: pull reported IC50 for UniProt P07195, entry Cc1cccc(C)c1C1CC(=O)C(Sc2ccccc2C#N)=C(O)C1 (stereo not given)
Response: 7.8

Request: Notebook: pull reported IC50 for UniProt P07195, entry N#Cc1ccccc1SC1=C(O)CC(c2ccccc2Cl)CC1=O (stereo not given)
Response: 6.6

Request: Notebook: pull reported IC50 for UniProt P07195, entry Cc1cc(C(=O)O)cc(-c2cnc(N)c(N[C@H](C)c3ccccc3)n2)c1
Response: 7

Request: Notebook: pull reported IC50 for UniProt P07195, entry O=C1OC(c2ccsc2)(c2ccccn2)CC(O)=C1Sc1ccccc1Cl (stereo in doubt; 11)
Response: 0.54

Request: Notebook: pull reported IC50 for UniProt P07195, entry C[C@@H](Nc1nc(-c2cccc(C(=O)O)c2)cnc1N)c1ccc(Cl)cc1
Response: 5

----------
From various publications: pIC50 for L-lactate dehydrogenase B chain (Homo sapiens, UniProt P07195).
Entry type: numeric. Quantity: pIC50, the -log10 of concentration in molar units.

Request: Give the measured pIC50 of O=C1OC(c2ccccc2)(c2cscn2)CC(O)=C1Sc1ccccc1Cl (stereo in doubt; 10) .
Response: 5.55

Request: Give the measured pIC50 of CC(C)c1ccc(C(=O)O)cc1-c1cnc(N)c(N[C@H](C)c2ccccc2)n1 .
Response: 5.15

Request: Give the measured pIC50 of O=C1OC(c2ccccc2)(c2ccccc2O)CC(O)=C1Sc1ccccc1Cl (stereo in doubt; 15) .
Response: 6.02

Request: Give the measured pIC50 of Cc1cccc(C)c1C1CC(=O)C(Sc2ccccc2Cl)=C(O)C1 (stereo unspecified) .
Response: 5.72

Request: Give the measured pIC50 of O=C1CC(c2c(C(F)(F)F)cccc2C(F)(F)F)CC(O)=C1Sc1ccccc1Cl (stereo unspecified) .
Response: 5.13

Request: Give the measured pIC50 of N#Cc1ccccc1SC1=C(O)CC(c2c(Cl)cccc2Br)CC1=O (stereo unspecified) .
Response: 5.70

Request: Give the measured pIC50 of O=C1OC(c2ccccc2)(c2ccccc2)CC(O)=C1Sc1ccccc1Cl .
Response: 5.51

Request: Give the measured pIC50 of O=C1NC(c2cccc(Nc3ccc(F)c(F)c3)n2)(c2cccc(Oc3cccc4ncccc34)n2)CC(O)=C1Sc1ccccc1Cl (stereo in doubt; 47) .
Response: 6.19

Request: Give the measured pIC50 of COc1ccc(C#N)c(SC2=C(O)CC(c3c(Cl)ccc(OC(C)C)c3Cl)CC2=O)c1 (stereo unspecified) .
Response: 5.62

Request: Give the measured pIC50 of CC(C)Oc1ccc(Cl)c(C2CC(=O)C(Sc3cc(O)ccc3C#N)=C(O)C2)c1Cl (stereo unspecified) .
Response: 6.85

Request: Give the measured pIC50 of COc1ccc(C(=O)O)cc1-c1cnc(N)c(N[C@H](C)c2ccccc2)n1 .
Response: 5.15

Request: Give the measured pIC50 of O=C1OC(c2ccccc2)(c2cccs2)CC(O)=C1Sc1ccccc1Cl (stereo in doubt; 7) .
Response: 5.89

Request: Give the measured pIC50 of O=C1CC(c2c(Cl)cccc2Br)CC(O)=C1Sc1ccccc1Cl (stereo unspecified) .
Response: 5.47

Request: Give the measured pIC50 of O=C1CC(c2c(F)cccc2Cl)CC(O)=C1Sc1ccccc1Cl (stereo unspecified) .
Response: 5.28
